# RUN_DESCRIPTION: Biodistribution of radiometal-DOTA-BBN conjugates in CF1 normal mice
# EXPERIMENTAL_CONDITIONS: 1 hour post-injection
Here the recorded Avg % ID, S. Intestine is given for each entry.
Only the number, expressed in % ID, is required.

Example entries begin here.
compound="CSCC[C@H](NC(=O)[C@H](CC(C)C)NC(=O)[C@H](Cc1cnc[nH]1)NC(=O)CNC(=O)[C@@H](NC(=O)[C@H](C)NC(=O)[C@H](Cc1c[nH]c2ccccc12)NC(=O)[C@H](CCC(N)=O)NC(=O)CCCCCCCNC(=O)CN1CCN(CC(=O)O)CCN(CC(=O)O)CCN(CC(=O)O)CC1)C(C)C)C(N)=O [177Lu-DOTA-8-Aoc-BBN[7-14]NH2] [metal not drawn]" obs_value=9.55
compound="CSCC[C@H](NC(=O)[C@H](CC(C)C)NC(=O)[C@H](Cc1c[nH]cn1)NC(=O)CNC(=O)[C@@H](NC(=O)[C@H](C)NC(=O)[C@H](Cc1c[nH]c2ccccc12)NC(=O)[C@H](CCC(N)=O)NC(=O)CCCCNC(=O)CN1CCN(CC(=O)O)CCN(CC(=O)O)CCN(CC(=O)O)CC1)C(C)C)C(N)=O [177Lu-DOTA-5-Ava-BBN[7-14]NH2] [metal not drawn]" obs_value=3.80

Please examine the following record next.
Give the measured Avg % ID, S. Intestine of CSCC[C@H](NC(=O)[C@H](CC(C)C)NC(=O)[C@H](Cc1cnc[nH]1)NC(=O)CNC(=O)[C@@H](NC(=O)[C@H](C)NC(=O)[C@H](Cc1c[nH]c2ccccc12)NC(=O)[C@H](CCC(N)=O)NC(=O)CN1CCN(CC(=O)O)CCN(CC(=O)O)CCN(CC(=O)O)CC1)C(C)C)C(N)=O [149Pm-DOTA-0-BBN[7-14]NH2] .
0.38

====

# RUN_DESCRIPTION: Biodistribution of radiometal-DOTA-BBN conjugates in CF1 normal mice
# EXPERIMENTAL_CONDITIONS: 1 hour post-injection
Here the recorded Avg % ID/gm, Spleen is given for each entry.
Only the number, expressed in % ID/gm, is required.

Example entries begin here.
molecule="CSCC[C@H](NC(=O)[C@H](CC(C)C)NC(=O)[C@H](Cc1c[nH]cn1)NC(=O)CNC(=O)[C@@H](NC(=O)[C@H](C)NC(=O)[C@H](Cc1c[nH]c2ccccc12)NC(=O)[C@H](CCC(N)=O)NC(=O)CCCCNC(=O)CN1CCN(CC(=O)O)CCN(CC(=O)O)CCN(CC(=O)O)CC1)C(C)C)C(N)=O [177Lu-DOTA-5-Ava-BBN[7-14]NH2] [metal not drawn]" readout_name="Avg % ID/gm, Spleen" obs_value=1.26
molecule="CSCC[C@H](NC(=O)[C@H](CC(C)C)NC(=O)[C@H](Cc1cnc[nH]1)NC(=O)CNC(=O)[C@@H](NC(=O)[C@H](C)NC(=O)[C@H](Cc1c[nH]c2ccccc12)NC(=O)[C@H](CCC(N)=O)NC(=O)CCNC(=O)CN1CCN(CC(=O)O)CCN(CC(=O)O)CCN(CC(=O)O)CC1)C(C)C)C(N)=O [111In-DOTA-β-Ala-BBN[7-14]NH2] [metal not drawn]" readout_name="Avg % ID/gm, Spleen" obs_value=0.37

Give the measured Avg % ID/gm, Spleen of CSCC[C@H](NC(=O)[C@H](CC(C)C)NC(=O)[C@H](Cc1cnc[nH]1)NC(=O)CNC(=O)[C@@H](NC(=O)[C@H](C)NC(=O)[C@H](Cc1c[nH]c2ccccc12)NC(=O)[C@H](CCC(N)=O)NC(=O)CCNC(=O)CN1CCN(CC(=O)O)CCN(CC(=O)O)CCN(CC(=O)O)CC1)C(C)C)C(N)=O [149Pm-DOTA-β-Ala-BBN[7-14]NH2] .
0.16
